From: patent US20250026827A1

Target: T1, mouse SIRPα on cells (mouse, UniProt P97797 32-513)
T1 construct: whole, on cells
T1 sequence (looked up): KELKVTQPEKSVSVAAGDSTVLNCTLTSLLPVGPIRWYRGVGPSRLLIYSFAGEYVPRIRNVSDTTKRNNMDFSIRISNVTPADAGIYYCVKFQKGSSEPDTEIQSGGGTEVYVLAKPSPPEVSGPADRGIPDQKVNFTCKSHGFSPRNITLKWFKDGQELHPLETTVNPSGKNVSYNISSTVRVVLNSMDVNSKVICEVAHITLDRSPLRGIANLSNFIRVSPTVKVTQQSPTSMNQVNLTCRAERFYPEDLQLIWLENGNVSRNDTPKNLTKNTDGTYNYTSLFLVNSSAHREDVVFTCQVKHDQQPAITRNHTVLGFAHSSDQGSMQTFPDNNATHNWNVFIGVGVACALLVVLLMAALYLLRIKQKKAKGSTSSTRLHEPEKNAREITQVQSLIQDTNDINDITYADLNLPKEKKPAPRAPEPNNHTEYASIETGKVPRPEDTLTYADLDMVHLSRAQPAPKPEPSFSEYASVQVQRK
Assay: flow cytometry;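 also: antibodies tested at 1 µg/ml for 30 min on ice against receptor-expressing cells, detected with a PE-labelled secondary antibody, read as mean fluorescence intensity relative to background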
Catalogue of FOB values
Give just the number in fold over background; leave the unit off.

Recorded FOB for SB-48 (antibody, V domains shown, IgG) VH: QVQLVESGGGVVQPGRSLRLSCAASGFTFSSYGMHWVRQAPGKGLEWVAVISYDGSNKYYADSVKGRFTISRDNSKNTLYLQMNSLRAEDTAVYYCARDGTIAAAGWPPEYFQHWGQGTLVTVSS VL: DIQMTQSPSSVSASVGDRVTITCRASQGIDSWLAWYQQKPGKAPKLLIYAASSLQSGVPSRFSGSGSGTDFTLTISSLQPEDFATYYCQQASNFPITFGGGTKVEIK , please?
2.4
